The reported numbers originate from patent US20120040977A1.

Tested on: HCV genotype 1b replicon
Assay: HCV replicon assay (HCV 1b_Huh-Luc/Neo-ET cell line, luciferase readout)
Type: cell-based
Conditions: Hepatitis C virus; bicistronic genotype 1b replicon in Huh 7 cells, 72 h incubation, luciferase enzyme activity; read-out: Inhibition of HCV genotype 1b
RESULT TYPE: EC50

Below: 6 compounds and their reported EC50.
COC(=O)N[C@@H](C(=O)N1CCC[C@H]1C(=O)NCc1ccc(-c2ccc(-c3cnc([C@@H]4CCCN4C(=O)[C@H](NC(=O)OC)c4ccccc4)[nH]3)cc2)cn1)c1ccccc1 [Compound 120] :: < 1 nM
COC(=O)N[C@H](C(=O)N1CCC[C@H]1CNC(=O)c1ccc(-c2ccc(-c3cnc([C@@H]4CCCN4C(=O)[C@@H](NC(=O)OC)C4CCOCC4)[nH]3)cc2)cc1)C1CCOCC1 [Compound 123] :: 1 to 9.9 nM
O=C(N[C@@H](C(=O)N1CCOC[C@H]1C(=O)Nc1ccc(-c2ccc(-c3cnc([C@@H]4COCCN4C(=O)[C@H](NC(=O)C4CC4)c4ccccc4)[nH]3)cc2)cc1)c1ccccc1)C1CC1 [Compound 1] :: < 1 nM
COC(=O)N[C@H](C(=O)N1CCC[C@H]1CNC(=O)c1ccc(-c2ccc3c(ccc4nc([C@@H]5CCCN5C(=O)[C@@H](NC(=O)OC)C(C)C)[nH]c43)c2)cc1)C(C)C [Compound 113] :: < 1 nM
C[C@@H](NC(=O)C1CC1)C(=O)N1CCOC[C@H]1C(=O)Nc1ccc(-c2ccc(-c3cnc([C@@H]4CCCN4C(=O)[C@@H](C)NC(=O)C4CC4)[nH]3)cc2)cc1 [Compound 22] :: 1 to 9.9 nM
COC(=O)N[C@@H](C(=O)N1CCC[C@H]1C(=O)NCc1ccc(-c2ccc(-c3cnc([C@@H]4CCCN4C(=O)[C@H](NC(=O)OC)c4ccccc4)[nH]3)cn2)cc1)c1ccccc1 [Compound 118] :: < 1 nM

Query :: Please respond with reported EC50 (system HCV genotype 1b replicon) for C[C@@H](NC(=O)OC(C)(C)C)C(=O)N1CCC[C@H]1c1ncc(-c2ccc(Oc3ccc(-c4cnc([C@@H]5CCCN5C(=O)[C@@H](C)NC(=O)OC(C)(C)C)[nH]4)cc3)cc2)[nH]1 [Compound 47] .
Result :: 1 to 9.9 nM

Query :: Please respond with reported EC50 (system HCV genotype 1b replicon) for COC(=O)N[C@@H](C(=O)N1CCC[C@H]1c1ncc(-c2ccc(-c3ccc(C(=O)NC[C@@H]4CCCN4C(=O)[C@@H](c4ccccc4)N(C)C)cc3)cc2)[nH]1)c1ccccc1 [Compound 65] .
Result :: < 1 nM

Query :: Please respond with reported EC50 (system HCV genotype 1b replicon) for COC(=O)N[C@H](C(=O)N1CCC[C@H]1C(=O)Nc1ccc(-c2ccc3c(ccc4nc([C@@H]5CCCN5C(=O)[C@@H](NC(=O)OC)C(C)C)[nH]c43)c2)cc1)C(C)C [Compound 114] .
Result :: < 1 nM

Query :: Please respond with reported EC50 (system HCV genotype 1b replicon) for COC(=O)N[C@H](C(=O)N1CCC[C@H]1C(=O)Nc1ccc(-c2ccc(-c3cnc([C@@H]4CCCN4C(=O)[C@@H](NC(=O)OC)C(C)C)[nH]3)cn2)cc1)C(C)C [Compound 71] .
Result :: 1 to 9.9 nM

Query :: Please respond with reported EC50 (system HCV genotype 1b replicon) for O=C(N[C@@H](C(=O)N1CCC[C@H]1C(=O)Nc1ccc(-c2ccc(-c3cnc([C@@H]4COCCN4C(=O)[C@H](NC(=O)C4CC4)c4ccccc4)[nH]3)cc2)cc1)c1ccccc1)C1CC1 [Compound 11] .
Result :: < 1 nM
